Listing of recorded pEC50 by entry.
# System tested: human C-terminal DNMT3A (a.a. 623-908) (Homo sapiens)
# Construct: The human C-terminal DNMT3A (a.a. 623-908)
# Sequence (Q9Y6K1 627-912 limits assumed): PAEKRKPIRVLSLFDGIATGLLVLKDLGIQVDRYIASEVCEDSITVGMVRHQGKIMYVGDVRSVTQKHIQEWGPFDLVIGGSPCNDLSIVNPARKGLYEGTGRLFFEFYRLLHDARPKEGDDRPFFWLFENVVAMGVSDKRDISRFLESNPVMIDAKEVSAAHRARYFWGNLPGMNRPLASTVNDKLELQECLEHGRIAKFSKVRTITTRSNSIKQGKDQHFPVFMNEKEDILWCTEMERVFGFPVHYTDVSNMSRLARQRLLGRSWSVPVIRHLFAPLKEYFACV
# Run description: DNMT3A assay (restriction-based fluorescence)
# Assay conditions: concentration range in triplicates
pEC50: −log10 of the molar value.

Compound	pEC50
c1ccc(CCCNc2ncnc3cc(OCCCNCCNc4ccnc5ccccc45)ccc23)cc1 [Compound F]	5.00
COc1ccc2c(NCCN3CCC(COc4ccc5c(NCCCc6ccccc6)ncnc5c4)CC3)ccnc2c1 [AP]	5.59
Cc1cc(NCCNc2ncnc3cc(OCC4CCN(CCNc5ccnc6ccccc56)CC4)ccc23)nc(N)n1 [Compound Q]	5.24
c1ccc(CCCNc2ncnc3cc(OCC4CCN(CCNc5ccnc6ccccc56)CC4)ccc23)cc1 [Compound G]	5.62
O=[N+]([O-])c1ccc(CCNc2ncnc3cc(OCC4CCN(CCNc5ccnc6ccccc56)CC4)ccc23)cc1 [AE]	5.96
c1ccc(CN2CCC(Nc3ncnc4cc(OCC5CCN(CCNc6ccnc7ccccc67)CC5)ccc34)CC2)cc1 [AL]	5.10
c1ccc2c(NCCNc3ncnc4cc(OCC5CCN(CCNc6ccnc7ccccc67)CC5)ccc34)ccnc2c1 [AI]	6.00
Clc1ccc(CCNc2ncnc3cc(OCC4CCN(CCNc5ccnc6ccccc56)CC4)ccc23)cc1 [AC]	5.72
c1ccc(CNc2ncnc3cc(OCC4CCN(CCNc5ccnc6ccccc56)CC4)ccc23)cc1 [Compound P]	4.88
